assay_protocol: self-splicing fitness, log relative to wild type (ln ratio); higher = more splicing; Tetrahymena group I intron in knt gene, E. coli kanamycin selection, DiMSum; sequences stand for … in CUCUCU…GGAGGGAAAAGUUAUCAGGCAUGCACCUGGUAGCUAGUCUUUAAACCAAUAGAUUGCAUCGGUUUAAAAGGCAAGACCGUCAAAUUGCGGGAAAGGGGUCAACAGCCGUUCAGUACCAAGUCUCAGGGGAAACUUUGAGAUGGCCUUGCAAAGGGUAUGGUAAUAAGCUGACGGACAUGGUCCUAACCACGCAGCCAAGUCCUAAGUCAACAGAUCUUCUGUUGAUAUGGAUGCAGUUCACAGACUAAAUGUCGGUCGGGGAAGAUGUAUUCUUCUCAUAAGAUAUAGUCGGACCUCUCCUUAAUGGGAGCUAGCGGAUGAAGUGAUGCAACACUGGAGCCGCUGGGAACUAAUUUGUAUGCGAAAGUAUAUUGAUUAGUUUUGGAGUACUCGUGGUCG;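 note: selection with 25 µg/mL kanamycin versus none on LB agar overnight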
details: 37 °C
Below, each of the sequences is paired with its reported self-splicing fitness (ln) value.
Form field (numeric): enter value without unit.

The cases that follow already have their self-splicing fitness (ln) on record.
Request: Entry CUAUAGCAAUAUUACGCUAC has what self-splicing fitness (ln)?
Response: -2.98

Request: Entry CACCAGCAAUAUUACGAUCG has what self-splicing fitness (ln)?
Response: 0.608

Request: Entry AUUCAGCAAUAUUACGUUCA has what self-splicing fitness (ln)?
Response: -0.606

Request: Entry GGAUAGCAAUAUUACGCAUG has what self-splicing fitness (ln)?
Response: 0.00525

Request: Entry CUCUAGCAAUAUUACGGAGA has what self-splicing fitness (ln)?
Response: -0.951

Request: Entry AUAGAGCAAUAUUACGGAGG has what self-splicing fitness (ln)?
Response: -1.8

# input for lookup
Request: Entry AGGAAGCAAUAUUACGAGCU has what self-splicing fitness (ln)?
Response: 0.0249
